Target: RSV F on RSV-A2 virus (Respiratory syncytial virus (RSV-A2))
Assay: cell-based or functional assay
Neutralization IC50 (RSV subtype A) for assorted binders
Measured Parameter: Neutralization IC50 (RSV subtype A) (µg/mL)

[
  {
    "Binder": "ADI-41299 (antibody, V domains shown) VH: EVQLVESGGGLVHPGRSLRLSCGASGFTFRSFAMHWVRQAPGKGLEWVAVISYDGSDEYYADSVKGRFTISRDNSRNTLFLQMNRLRPEDTAIYYCARAYCSTSNCPVLDYWGQGTLVTVSS VL: QSVLIQPASVSGSPGQSITISCTGTSSDVGGYSLVSWYQQHPGKAPKLIIFEGNKRPAGVSDRFSGSKYGDTASLTISGLQAEDEADYYCCSYAGGHSVFGGGTKVTVL",
    "Measured Parameter": "Neutralization IC50 (RSV subtype A)",
    "Rel": ">",
    "Observed Result": 25
  },
  {
    "Binder": "ADI-41238 (antibody, V domains shown) VH: EVQLLESGGGLVKPGGSLRLSCAASGFTFRDYYMSWIRQAPGKGLEWVSYISSSSSYTEYADSVKGRFTISRDNAKKSLYLQMNSLRTEDTAVYYCARVITQAGTGTTYYMDVWGKGTTVTVSS VL: QSVLTQPPSVSGAPGQRVTISCTGSSSNIGTGYDVHWYQQLPGTAPKLLIYANNNRPSGVPDRFSGSKSGTSASLAITGLQAEDEADYYCQSYDSSLSLVFGGGTKLTVL",
    "Measured Parameter": "Neutralization IC50 (RSV subtype A)",
    "Rel": "=",
    "Observed Result": 0.13
  },
  {
    "Binder": "ADI-41317 (antibody, V domains shown) VH: EVQLVESGGGLVQPGGSLRLSCEASRFKFSTFWMAWVRQAPGKGLEWVANIKQDGSETYYLDSVKGRFTISRDNAKNSLFLQMKSLRAEDTAVYYCAGLWWGDLENWFDPWGQGTLVTVSS VL: QSVLTQPPSVSGAPGQRVTISCTGSSSNLGTGFDVHWYRQLPGTAPQLLIYGSTNRPSGVPDRFSGSKYGTSASLAITGLQAEDEADYYCQSYDSNLRAYVFGTVTKVTVL",
    "Measured Parameter": "Neutralization IC50 (RSV subtype A)",
    "Rel": "=",
    "Observed Result": 4.66
  }
]
